// reported Tmax per item
# assay_overview: Tmax in guinea pig at 1 mg/kg, iv by LC-MS/MS analysis
# Type: ADME, organism-based, Cavia porcellus
# condition_parameters: in vivo
Write down the numeric answer in min and omit the unit.

Here's what some known entries look like.
- chemical_structure: "CC(=O)N1CCN(c2ccc(/C=C/c3cc(F)cc(-c4ccncc4)c3)cc2)CC1"
  readout: "Tmax"
  assay_result: 6
- chemical_structure: "CCS(=O)(=O)N1CCN(c2ccc(/C=C/c3cc(F)cc(-c4ccncc4)c3)cc2)CC1"
  readout: "Tmax"
  assay_result: 9

Okay, now this molecule:
# lookup: Tmax of "O=S(=O)(N1CCN(c2ccc(/C=C/c3cc(F)cc(-c4ccncc4)c3)cc2)CC1)C(F)(F)F"
12
